Data provenance is the supplement of paper PMC10307832.

I'd be grateful if you could share measured relative viability for these entries.
test system: NCI-H522; experiment: relative viability (nuclei count vs DMSO), 5 days (fraction); higher = more cells survive; settings: first compound 0.4 µM
Please state the value as a number alone, without comment.

Notebook: pull reported relative viability for NCI-H522, entry Cc1sc2c(c1C)C(c1ccc(Cl)cc1)=N[C@@H](CC(=O)OC(C)(C)C)c1nnc(C)n1-2 [JQ1] + CC(=O)Nc1cccc(-n2c(=O)n(C3CC3)c(=O)c3c(Nc4ccc(I)cc4F)n(C)c(=O)c(C)c32)c1 [Trametinib] (partner 0.02 µM)
0.485

Notebook: pull reported relative viability for NCI-H522, entry Cc1sc2c(c1C)C(c1ccc(Cl)cc1)=N[C@@H](CC(=O)OC(C)(C)C)c1nnc(C)n1-2 [JQ1] + O=C(CCCCCCC(=O)Nc1ccccc1)NO [Vorinostat] (partner 1 µM)
0.737

Notebook: pull reported relative viability for NCI-H522, entry Cc1sc2c(c1C)C(c1ccc(Cl)cc1)=N[C@@H](CC(=O)OC(C)(C)C)c1nnc(C)n1-2 [JQ1] + Nc1nc2[nH]cc(CCc3ccc(C(=O)N[C@@H](CCC(=O)O)C(=O)O)cc3)c2c(=O)[nH]1 [Pemetrexed] (partner 0.2 µM)
0.54

Notebook: pull reported relative viability for NCI-H522, entry Cc1sc2c(c1C)C(c1ccc(Cl)cc1)=N[C@@H](CC(=O)OC(C)(C)C)c1nnc(C)n1-2 [JQ1] + CCNC(=O)c1noc(-c2cc(C(C)C)c(O)cc2O)c1-c1ccc(CN2CCOCC2)cc1 [Luminespib] (partner 0.01 µM)
0.677

###

tested on: NCI-H2126; assay: relative viability (nuclei count vs DMSO), 5 days (fraction); higher = more cells survive; conditions: first compound 0.1581 µM
Measurement Type: relative viability
Please state the value as a number alone, without comment.

May I ask what relative viability has been recorded for Nc1ccn([C@@H]2O[C@H](CO)[C@@H](O)[C@@H]2O)c(=O)n1 [Cytarabine] + Cc1cc(Nc2cc(N3CCN(C)CC3)nc(Sc3ccc(NC(=O)C4CC4)cc3)n2)n[nH]1 [Tozasertib] (partner 0.1 µM) ?
0.53

May I ask what relative viability has been recorded for COc1cc2nccc(Oc3ccc(NC(=O)Nc4cc(C)on4)c(Cl)c3)c2cc1OC [Tivozanib] + Cc1nc(NC(=O)N2CCC[C@H]2C(N)=O)sc1-c1ccnc(C(C)(C)C(F)(F)F)c1 [Alpelisib] (partner 2 µM) ?
0.53

May I ask what relative viability has been recorded for Nc1ccn([C@@H]2O[C@H](CO)[C@@H](O)[C@@H]2O)c(=O)n1 [Cytarabine] + Nc1ncn([C@H]2C[C@H](O)[C@@H](CO)O2)c(=O)n1 [Decitabine] (partner 2 µM) ?
0.457

May I ask what relative viability has been recorded for COc1cc2nccc(Oc3ccc(NC(=O)Nc4cc(C)on4)c(Cl)c3)c2cc1OC [Tivozanib] + O=C(c1cc(Cc2n[nH]c(=O)c3ccccc23)ccc1F)N1CCN(C(=O)C2CC2)CC1 [Olaparib] (partner 8 µM) ?
0.845

###

I'd be grateful if you could share measured relative viability for these entries.
tested on: LCLC-103H; assay: relative viability (nuclei count vs DMSO), 5 days (fraction); higher = more cells survive; conditions: first compound 4 µM
Please state the value as a number alone, without comment.

Notebook: pull reported relative viability for LCLC-103H, entry Cc1sc2c(c1C)C(c1ccc(Cl)cc1)=N[C@@H](CC(=O)OC(C)(C)C)c1nnc(C)n1-2 [JQ1] + CC(=O)Nc1cccc(-n2c(=O)n(C3CC3)c(=O)c3c(Nc4ccc(I)cc4F)n(C)c(=O)c(C)c32)c1 [Trametinib] (partner 0.02 µM)
0.426

Notebook: pull reported relative viability for LCLC-103H, entry Cc1sc2c(c1C)C(c1ccc(Cl)cc1)=N[C@@H](CC(=O)OC(C)(C)C)c1nnc(C)n1-2 [JQ1] + CC(C)C[C@H](NC(=O)[C@H](Cc1ccccc1)NC(=O)c1cnccn1)B(O)O [Bortezomib] (partner 0.002 µM)
0.439

Notebook: pull reported relative viability for LCLC-103H, entry Cc1sc2c(c1C)C(c1ccc(Cl)cc1)=N[C@@H](CC(=O)OC(C)(C)C)c1nnc(C)n1-2 [JQ1] + COc1cc2c(Oc3ccc(NC(=O)C4(C(=O)Nc5ccc(F)cc5)CC4)cc3F)ccnc2cc1OCCCN1CCOCC1 [Foretinib] (partner 0.25 µM)
0.301

Notebook: pull reported relative viability for LCLC-103H, entry Cc1sc2c(c1C)C(c1ccc(Cl)cc1)=N[C@@H](CC(=O)OC(C)(C)C)c1nnc(C)n1-2 [JQ1] + Cc1nc(Nc2ncc(C(=O)Nc3c(C)cccc3Cl)s2)cc(N2CCN(CCO)CC2)n1 [Dasatinib] (partner 0.075 µM)
0.266
